# studyTarget: Mu-type opioid receptor (Mus musculus, UniProt P42866)
# Sequence (P42866 whole entry): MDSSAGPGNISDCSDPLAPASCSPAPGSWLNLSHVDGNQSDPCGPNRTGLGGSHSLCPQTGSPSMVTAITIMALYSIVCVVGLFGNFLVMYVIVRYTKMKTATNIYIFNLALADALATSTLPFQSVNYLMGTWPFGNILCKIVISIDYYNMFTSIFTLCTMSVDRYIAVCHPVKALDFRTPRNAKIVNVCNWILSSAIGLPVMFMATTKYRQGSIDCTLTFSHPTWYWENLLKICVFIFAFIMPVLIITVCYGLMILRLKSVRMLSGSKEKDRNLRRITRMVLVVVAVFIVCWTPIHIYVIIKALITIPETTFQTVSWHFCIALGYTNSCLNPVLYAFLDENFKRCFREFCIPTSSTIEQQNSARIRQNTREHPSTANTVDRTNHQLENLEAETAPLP
# experimentalDetails: […]
# Type: functional
property: pKi
// pKi is dimensionless: -log10 of concentration (M)

compound	reportedResult
CN1CCC23c4c5ccc(O)c4OC2C(=O)C2(Cc4cc6ccccc6cc4C2)C[C@@]3(O)C1C5 (some centres undefined)	6.90
O=C1C2Oc3c(O)ccc4c3C23CCN(CC2CC2)C(C4)[C@]3(O)CC12Cc1cc3ccccc3cc1C2 (some centres undefined)	8.11
COc1cccc2c1CC1(C2)C[C@@]2(O)C3Cc4ccc(O)c5c4C2(CCN3CC2CC2)C(O5)C1=O (some centres undefined)	9.36

Query (compound): COc1cccc2c1CC1(C2)C[C@@]2(O)C3Cc4ccc(O)c5c4C2(CCN3C)C(O5)C1=O (some centres undefined) ; field requested: pKi
8.03

---

ED50 ratio by entry:
# studyTarget: Delta-type opioid receptor (Mus musculus) (UniProt P32300)
# Sequence (P32300 whole entry): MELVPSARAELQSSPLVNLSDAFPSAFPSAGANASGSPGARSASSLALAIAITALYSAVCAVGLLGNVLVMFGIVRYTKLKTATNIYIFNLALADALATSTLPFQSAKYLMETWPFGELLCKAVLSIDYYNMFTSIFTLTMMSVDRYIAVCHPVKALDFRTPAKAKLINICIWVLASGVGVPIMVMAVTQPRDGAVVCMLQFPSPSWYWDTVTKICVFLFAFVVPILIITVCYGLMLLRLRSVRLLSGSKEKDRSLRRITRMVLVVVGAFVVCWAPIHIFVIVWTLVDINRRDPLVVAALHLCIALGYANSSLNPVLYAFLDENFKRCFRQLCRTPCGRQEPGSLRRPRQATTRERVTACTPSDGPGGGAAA
# experimentalDetails: Compound was tested for its ability to antagonize the antinociceptive effect of DSLET (delta-2 opioid receptor agonist) in mice
# Type: functional
Note: the reply should be a number with no unit written.

Examples from the recorded data:
compound	property	reportedResult
O=C1/C(=C/c2ccccc2)C[C@@]2(O)[C@H]3Cc4ccc(O)c5c4[C@@]2(CCN3CC2CC2)[C@H]1O5	ED50 ratio	0.91
COc1cccc2c1CC1(C2)C[C@@]2(O)C3Cc4ccc(O)c5c4C2(CCN3CC2CC2)C(O5)C1=O (some centres undefined)	ED50 ratio	4.3
CN1CCC23c4c5ccc(O)c4OC2C(=O)C2(Cc4cc6ccccc6cc4C2)C[C@@]3(O)C1C5 (some centres undefined)	ED50 ratio	0.9

Lab note: next compound to report on.
API: value(readout= ED50 ratio, system= Delta-type opioid receptor (Mus musculus) (UniProt P32300), query= O=C1C2Oc3c(O)ccc4c3C23CCN(CC2CC2)C(C4)[C@]3(O)CC12Cc1cc3ccccc3cc1C2 (some centres undefined) )
1.5

---

IC50 ratio by entry:
# studyTarget: Kappa-type opioid receptor (Cavia porcellus)
# experimentalDetails: Antagonist activity against electrically stimulated guinea pig ileum using ethylketazocine (EK) as kappa opioid receptor agonist
# Format: functional, tissue-based
Note: the reply should be a number with no unit written.

Examples from the recorded data:
molecule	reportedResult
COc1cccc2c1CC1(C2)C[C@@]2(O)C3Cc4ccc(O)c5c4C2(CCN3CC2CC2)C(O5)C1=O (some centres not stated)	2.4
CN1CC[C@]23c4c5ccc(O)c4O[C@H]2C(=O)C2(Cc4ccccc4C2)C[C@@]3(O)[C@H]1C5	0.99
O=C1C2Oc3c(O)ccc4c3C23CCN(CC2CC2)C(C4)[C@]3(O)CC12Cc1ccc3ccccc3c1C2 (some centres not stated)	1.7
CN1CCC23c4c5ccc(O)c4OC2C(=O)C2(Cc4cc6ccccc6cc4C2)C[C@@]3(O)C1C5 (some centres not stated)	1.2
O=C1C2Oc3c(O)ccc4c3C23CCN(CC2CC2)C(C4)[C@]3(O)CC12Cc1cccc3cccc(c13)C2 (some centres not stated)	0.78
O=C1C2Oc3c(O)ccc4c3C23CCN(CC2CC2)C(C4)[C@]3(O)CC12Cc1cc3ccccc3cc1C2 (some centres not stated)	0.24

Query (molecule): COc1ccc2c(c1)CC1(C2)C[C@@]2(O)C3Cc4ccc(O)c5c4C2(CCN3CC2CC2)C(O5)C1=O (some centres not stated) ; field requested: IC50 ratio
2.8
